Target: Matrix metalloproteinase-9 (Homo sapiens)
Sequence (P14780 whole entry): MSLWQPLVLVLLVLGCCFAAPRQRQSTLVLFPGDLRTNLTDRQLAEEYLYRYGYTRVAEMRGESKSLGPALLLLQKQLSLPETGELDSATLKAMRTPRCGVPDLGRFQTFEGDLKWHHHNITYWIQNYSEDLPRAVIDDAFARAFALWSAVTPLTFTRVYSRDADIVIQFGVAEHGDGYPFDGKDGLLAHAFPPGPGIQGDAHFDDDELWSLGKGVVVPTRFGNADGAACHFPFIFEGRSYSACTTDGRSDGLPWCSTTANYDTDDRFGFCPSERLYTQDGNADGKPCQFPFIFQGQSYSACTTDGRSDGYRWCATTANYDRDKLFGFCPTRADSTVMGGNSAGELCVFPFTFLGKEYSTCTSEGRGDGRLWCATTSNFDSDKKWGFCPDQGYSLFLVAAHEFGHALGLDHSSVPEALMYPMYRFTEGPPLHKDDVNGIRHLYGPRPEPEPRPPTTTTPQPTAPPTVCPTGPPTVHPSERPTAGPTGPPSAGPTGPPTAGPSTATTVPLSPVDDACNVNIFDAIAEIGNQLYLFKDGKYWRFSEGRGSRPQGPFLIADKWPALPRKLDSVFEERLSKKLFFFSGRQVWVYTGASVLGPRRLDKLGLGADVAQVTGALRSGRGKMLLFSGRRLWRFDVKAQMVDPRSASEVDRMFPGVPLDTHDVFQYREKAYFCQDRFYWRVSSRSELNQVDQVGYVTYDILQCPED
property: pIC50
When answering, recall that pIC50 equals minus log10 of the concentration in mol/L, and write that number alone.

// pIC50 value for CNC(=O)[C@H](Cc1ccccc1)NC(=O)[C@H](CC(C)C)[C@H](CSc1cccs1)C(=O)NO : 9.22

----------
Biological target: UniProt P09237
Sequence (P09237 whole entry): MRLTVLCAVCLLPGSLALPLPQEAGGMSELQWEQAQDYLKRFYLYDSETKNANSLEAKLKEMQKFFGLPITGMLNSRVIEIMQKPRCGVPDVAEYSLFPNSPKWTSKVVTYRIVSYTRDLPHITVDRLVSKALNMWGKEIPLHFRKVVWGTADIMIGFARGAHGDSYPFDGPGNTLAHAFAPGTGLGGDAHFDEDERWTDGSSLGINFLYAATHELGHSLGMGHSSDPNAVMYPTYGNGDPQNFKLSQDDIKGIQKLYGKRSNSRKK
property: IC50 (nM)
Give the quantity in nM, number only.

// IC50 value for CNC(=O)[C@H](Cc1ccc(OC)cc1)NC(=O)[C@@H](CC(=O)NO)CC(C)C : 30

----------
property: IC50 (nM)
Give the quantity in nM, number only.

Result for CNC(=O)[C@H](Cc1ccccc1)NC(=O)[C@H](CC(C)C)[C@H](CSc1cccs1)C(=O)NO [BATIMASTAT] , tested on UniProt:P50281, IC50: 4.6
